Source of measurements: ChEMBL document CHEMBL1152522

test system: Mus musculus; assay: Immunostimulatory activity in C57BL/6 mouse assessed as increase in serum IL4 production at 10 ug/mL, iv after 3 to 24 hrs post-injection by cytometric bead array method; type: functional, organism-based
The source made the active and inactive calls. The calls are words filed in the database; no cut-off is given here.
Can you answer with just one of these options? active, inactive

Record lookup: outcome of this test for CCCCCCCCCCCCCCCCCCCCCCCCCC(=O)N[C@@H](CO[C@@H]1[C@H](O)[C@@H](O)[C@@H](O)[C@@H](O)[C@@H]1O)[C@H](O)[C@H](O)CCCCCCCCCCCCCC ?
inactive

---

system: Mus musculus; experiment: Immunostimulatory activity in C57BL/6 mouse assessed as increase in serum IL4 production at 10 ug/mL, iv after 3 to 24 hrs post-injection by cytometric bead array method; format: functional, organism-based
The source made the active and inactive calls. The rule behind the calls is not given here.
Can you answer with just one of these options? active, inactive

Take a look at these entries with their results.
Record lookup: outcome of this test for CCCCCCCCCCCCCCCCCCCCCCCCCC(=O)N[C@@H](CO[C@@H]1[C@H](O)[C@@H](O)[C@H](O)[C@@H](O)[C@@H]1O)[C@H](O)[C@H](O)CCCCCCCCCCCCCC ?
inactive

Record lookup: outcome of this test for CCCCCCCCCCCCCCCCCCCCCCCCCC(=O)N[C@@H](CO[C@H]1C[C@H](O)[C@H](O)[C@H](O)[C@H]1O)[C@H](O)[C@H](O)CCCCCCCCCCCCCC ?
active

More entries:
Record lookup: outcome of this test for CCCCCCCCCCCCCCCCCCCCCCCCCC(=O)N[C@@H](CO[C@H]1C[C@H](OC)[C@H](O)[C@H](O)[C@H]1O)[C@H](O)[C@H](O)CCCCCCCCCCCCCC ?
active
